Source: paper PMC10786891

- Measured On: T1, EsCas13d, nuclease-dead (Eubacterium siraeum, UniProt B0MS50, R295A;H300A;R849A;H854A)
- T1 sequence: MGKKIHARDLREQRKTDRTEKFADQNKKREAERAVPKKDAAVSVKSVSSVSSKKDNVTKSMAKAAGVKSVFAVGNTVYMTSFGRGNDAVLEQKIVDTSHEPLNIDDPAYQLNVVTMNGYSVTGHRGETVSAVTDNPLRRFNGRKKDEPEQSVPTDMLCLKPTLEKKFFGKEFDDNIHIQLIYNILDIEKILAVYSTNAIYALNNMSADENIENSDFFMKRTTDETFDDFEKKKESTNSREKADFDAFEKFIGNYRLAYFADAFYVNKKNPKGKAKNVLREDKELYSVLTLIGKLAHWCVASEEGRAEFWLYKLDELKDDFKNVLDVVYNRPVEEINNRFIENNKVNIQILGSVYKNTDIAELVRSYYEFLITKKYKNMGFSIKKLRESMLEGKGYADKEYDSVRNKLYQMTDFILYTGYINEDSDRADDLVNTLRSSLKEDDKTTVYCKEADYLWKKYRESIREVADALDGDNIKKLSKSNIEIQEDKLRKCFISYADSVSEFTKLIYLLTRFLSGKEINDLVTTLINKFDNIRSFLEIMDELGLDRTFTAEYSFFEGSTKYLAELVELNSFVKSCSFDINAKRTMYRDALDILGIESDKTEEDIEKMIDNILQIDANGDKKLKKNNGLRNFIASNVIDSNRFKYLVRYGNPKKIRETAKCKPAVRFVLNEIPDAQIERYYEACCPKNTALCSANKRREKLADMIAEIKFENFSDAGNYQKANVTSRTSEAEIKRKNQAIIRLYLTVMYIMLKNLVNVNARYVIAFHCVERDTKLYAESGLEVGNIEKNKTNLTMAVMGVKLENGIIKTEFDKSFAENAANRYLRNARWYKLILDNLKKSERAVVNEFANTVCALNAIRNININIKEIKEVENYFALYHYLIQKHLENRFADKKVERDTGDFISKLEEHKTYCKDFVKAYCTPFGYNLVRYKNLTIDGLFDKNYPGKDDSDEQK
- Measurement Notes: crRNA (strand 1, pre-loaded); Mg2+; 40 mM Tris-HCl pH 7.5, 150 mM NaCl, 6 mM MgCl2, 1 mM DTT, 0.1% Tween-20, 0.2 mg/ml BSA; 25 C; 10 min per concentration, then washed
- Run Parameters: tags: His6-TwinStrep-SUMO cleaved; N-terminal SNAP kept (SNAP-Surface 488); label: 3' end held by stalled T7 RNA polymerase
Quantity Name: pKd
Reminder that pKd is minus the log10 of a molar concentration.

Input target 2 MT 5'PFS GGU 3'PFS AGG (mixed) RNA 1: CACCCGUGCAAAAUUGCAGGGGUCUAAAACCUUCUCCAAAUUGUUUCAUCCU RNA 2: GGGAAUGGAUCCACAUCUACGAAUUCGGUAGGAUGAAACAAUUUGGAGAAGAGGAGAUCGGAAGAGCACACGU . Output pKd: 7.84

Input target 3 insU 3' of 5,insU 3' of 1 (mixed) RNA 1: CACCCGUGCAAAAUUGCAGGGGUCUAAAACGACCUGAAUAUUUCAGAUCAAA RNA 2: GGGAAUGGAUCCACAUCUACGAAUUCGUUUUUGAUCUGAAAUAUUCAUGGUCUUGCAGAUCGGAAGAGCACACGU . Output pKd: 7.51
